Molecular target: T1, human CD131 (human, UniProt P32927 17-897)
T1 sequence: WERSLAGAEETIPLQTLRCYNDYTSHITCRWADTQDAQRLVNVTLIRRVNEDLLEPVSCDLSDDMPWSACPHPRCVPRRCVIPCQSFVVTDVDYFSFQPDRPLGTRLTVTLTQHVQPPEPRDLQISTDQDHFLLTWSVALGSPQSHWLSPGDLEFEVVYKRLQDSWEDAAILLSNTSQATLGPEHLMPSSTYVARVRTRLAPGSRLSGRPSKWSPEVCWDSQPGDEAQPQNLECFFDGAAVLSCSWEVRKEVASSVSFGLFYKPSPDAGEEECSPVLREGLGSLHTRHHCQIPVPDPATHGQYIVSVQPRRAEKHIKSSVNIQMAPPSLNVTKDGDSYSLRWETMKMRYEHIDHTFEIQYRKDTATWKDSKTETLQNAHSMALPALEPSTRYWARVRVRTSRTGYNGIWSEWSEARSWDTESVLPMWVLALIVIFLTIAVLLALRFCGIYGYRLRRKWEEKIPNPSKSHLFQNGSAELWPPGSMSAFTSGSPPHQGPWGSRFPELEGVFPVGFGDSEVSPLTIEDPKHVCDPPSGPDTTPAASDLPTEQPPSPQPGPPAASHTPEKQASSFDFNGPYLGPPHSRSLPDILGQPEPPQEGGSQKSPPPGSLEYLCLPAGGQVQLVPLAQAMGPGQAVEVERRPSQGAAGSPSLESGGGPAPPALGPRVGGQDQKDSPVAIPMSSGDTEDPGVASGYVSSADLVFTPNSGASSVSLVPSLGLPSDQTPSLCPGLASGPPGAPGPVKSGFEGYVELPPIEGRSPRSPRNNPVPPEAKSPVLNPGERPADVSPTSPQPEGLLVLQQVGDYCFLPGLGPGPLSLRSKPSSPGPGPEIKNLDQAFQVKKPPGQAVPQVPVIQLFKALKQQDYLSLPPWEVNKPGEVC
Test: cell-based or functional assay
I'd appreciate it if you could supply IC50 GM-CSF, TF-1 proliferation values for the items below.
Kindly provide the numeric value in nM only, without the unit symbol.

Query: Quick one: IC50 GM-CSF, TF-1 proliferation of 9A2-VR24.81 (antibody, V domains shown) VH: EVQLLESGGGLVQPGGSLRLSCAASGFTFPWYRVHWVRQAPGKGLEWVSSIHTHRNYTYYADSVKGRFTISRDNSKNTLYLQMNSLRAEDTAVYYCARFYDSFFDIWGQGTMVTVSS VL: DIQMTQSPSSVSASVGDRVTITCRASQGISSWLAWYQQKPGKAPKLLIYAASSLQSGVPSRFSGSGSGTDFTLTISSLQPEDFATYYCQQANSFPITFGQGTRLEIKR ?
Result: 0.48

Query: Requested field: IC50 GM-CSF, TF-1 proliferation. Item: 9A2-VR39 (antibody, V domains shown) VH: EVQLLESGGGLVQPGGSLRLSCAASGFTFSHYHMLWVRQAPGKGLEWVSSINGRGRVTYYADSVKGRFTISRDNSKNTLYLQMNSLRAEDTAVYYCARFYDSFFDIWGQGTMVTVSS VL: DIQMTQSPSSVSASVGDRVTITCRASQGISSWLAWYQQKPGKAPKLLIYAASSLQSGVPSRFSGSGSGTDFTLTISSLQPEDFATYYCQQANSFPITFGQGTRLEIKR
Result: 0.88
